This section presents molecules with their documented LD50 at 168 h values.
Experiment summary: Acute Oral Toxicity Test to Mice (Test Example 1-1)
Condition details: mouse, in vivo; oral (stomach), corn oil, male ICR mice, 7 days' observation
Report only the number, with the unit mg/kg understood.

Study these solved cases before continuing.
Molecule: CNC(=O)Oc1ccccc1OC(C)C [(E), Propoxur]
LD50 at 168 h, mg/kg: 39
--
Molecule: ClCCOCn1c(Br)nc(Br)c1Br
LD50 at 168 h, mg/kg: 170

GET /values?readout=LD50 at 168 h&item= BrCCOCn1c(Br)nc(Br)c1Br
110

----------
Tested on: German cockroach (Blattella germanica)
Experiment summary: Heating fumigant test in (70 cm)^3 glass chamber (Test Example 3)
Assay type: in vivo, strain low susceptible to pyrethroids
Condition details: Blattella germanica, 48 h; ceramic plate heating fumigant, 13.7 mg/plate: 40 mg/m^3, 0.34 m^3 chamber, after two days; read-out: Mortality (%)
Protocol: One hundred mg of each of the present compounds (1) to (7) is dissolved in a proper amount of acetone, and a porous ceramic plate of 4.0 cm×4.0cm×1.2 cm (thick) is impregnated with this solution to obtain the heating fumigant of each compound. Four polyethylene cups (inside diameter, 10 cm; height, 8 cm) coated with butter at the inside surface were set at the four corners, respectively, of the bottom of a (70 cm)^3 glass chamber (0.34 m^3). […]
Observed property: mortality at 40 mg/m3, 40 mg/m3 (%)
Report only the number, with the unit % understood.

Study these solved cases before continuing.
Compound: BrCCCCOCn1c(Br)nc(Br)c1Br [(3)]
System tested: German cockroach (Blattella germanica)
Test result: 100

Compound: BrCCCCCCOCn1c(Br)nc(Br)c1Br [(7)]
System tested: German cockroach (Blattella germanica)
Test result: 92.5

GET /values?readout=mortality at 40 mg/m3, 40 mg/m3&item= ClCCCCOCn1c(Br)nc(Br)c1Br [(4)]
90

Can you check CNC(=O)Oc1ccccc1OC(C)C [(E), Propoxur] next?
0

Can you check CCCCCOCn1c(Cl)nc(Cl)c1Cl [(B)] next?
47.5

Can you check Clc1nc(Cl)n(COCCCCCBr)c1Cl [(5)] next?
87.5
